src = paper PMC3984256

tested.system: Recombinant PCNA (proliferating cell nuclear antigen) (human, UniProt P12004 1-261)
Sequence (P12004 whole entry): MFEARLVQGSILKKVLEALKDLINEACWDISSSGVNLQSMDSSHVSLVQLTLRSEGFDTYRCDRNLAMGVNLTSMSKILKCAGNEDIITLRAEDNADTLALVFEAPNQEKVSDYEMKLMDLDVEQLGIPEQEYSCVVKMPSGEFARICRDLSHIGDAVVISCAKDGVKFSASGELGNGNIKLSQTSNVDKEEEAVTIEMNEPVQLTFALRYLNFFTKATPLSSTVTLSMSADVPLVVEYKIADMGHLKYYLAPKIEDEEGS
test.name: SPR; 0 nM caPep
measurement.type: Kd (nM)
# output: bare number, implied unit nM

Hello, please tell me recorded Kd for this one: SKSRQGSTQGRLDDFF [FEN1 peptide containing the PIP-box]
84.6
